// data source = patent US6784167B2

measured metric: melting point (°C)

## Input Indicate its recorded melting point; the compound in question is CN1C(=O)C[C@H](c2ccccc2)[C@@H]1[C@H](O)c1cccc(-c2ccc(F)cc2)c1 (racemic) [Example 104]
## Output 210

## Input Indicate its recorded melting point; the compound in question is COc1cccc(-c2cccc(C(O)C3C(c4ccccc4)CC(=O)N3C)c2)c1 (centres unmarked) [Example 107]
## Output 183

## Input Indicate its recorded melting point; the compound in question is CN1C(=O)CC(c2ccccc2)C1C(O)c1ccc(S(=O)(=O)c2ccccc2)s1 (centres unmarked) [Example 70]
## Output 247

## Input Indicate its recorded melting point; the compound in question is COc1ccccc1C1CC(=O)N(C)C1C(O)c1ccc(S(=O)(=O)c2ccc(Cl)cc2)s1 (centres unmarked) [Example 92]
## Output 220

###

measured metric: melting point

Worked cases, melting point given:
## Input Indicate its recorded melting point; the compound in question is CN1C(=O)C[C@H](c2ccccc2F)[C@@H]1[C@H](O)c1ccc(-c2cccnc2)s1 [Example 151]
## Output 195 to 197 °C

## Input Indicate its recorded melting point; the compound in question is COc1ccc(C(O)C2C(c3ccccc3)CC(=O)N2C)cc1 (centres unmarked) [Example 100]
## Output 154 to 157 °C

## Input Indicate its recorded melting point; the compound in question is CN1C(=O)C[C@H](c2ccccc2F)[C@@H]1[C@H](O)c1cccs1 [Example 150]
## Output 212 °C

## Input Indicate its recorded melting point; the compound in question is CN1C(=O)CC(c2ccccc2)C1C(O)c1ccc(-c2cccc(C(=O)O)c2)s1 (centres unmarked) [Example 33]
## Output 231 °C

## Input Indicate its recorded melting point; the compound in question is CN1C(=O)C[C@H](c2ccccc2F)[C@@H]1[C@H](O)c1ccc(-c2ccccn2)s1 [Example 153]
## Output 213 to 215 °C

Others:
## Input Indicate its recorded melting point; the compound in question is CN1C(=O)C[C@H](c2ccccc2)[C@@H]1[C@H](O)c1ccc(S(=O)(=O)N2CCSCC2)s1 (racemic) [Example 35]
## Output 197 to 199 °C

## Input Indicate its recorded melting point; the compound in question is CN1C(=O)C[C@H](c2ccccc2)[C@@H]1[C@H](O)c1ccc(C(=O)Nc2ccccc2)s1 (relative stereo) [Example 4]
## Output 223 to 227 °C

## Input Indicate its recorded melting point; the compound in question is CN1C(=O)C[C@H](c2ccccc2)[C@@H]1[C@H](O)c1ccc(-c2ccccc2F)s1 (racemic) [Example 71]
## Output 216 °C

###

Biological target: 17-Beta HSD II Enzyme (Homo sapiens, UniProt P37059)
Construct: made in house; host or cells: insect cells (baculovirus)
Sequence (P37059 whole entry): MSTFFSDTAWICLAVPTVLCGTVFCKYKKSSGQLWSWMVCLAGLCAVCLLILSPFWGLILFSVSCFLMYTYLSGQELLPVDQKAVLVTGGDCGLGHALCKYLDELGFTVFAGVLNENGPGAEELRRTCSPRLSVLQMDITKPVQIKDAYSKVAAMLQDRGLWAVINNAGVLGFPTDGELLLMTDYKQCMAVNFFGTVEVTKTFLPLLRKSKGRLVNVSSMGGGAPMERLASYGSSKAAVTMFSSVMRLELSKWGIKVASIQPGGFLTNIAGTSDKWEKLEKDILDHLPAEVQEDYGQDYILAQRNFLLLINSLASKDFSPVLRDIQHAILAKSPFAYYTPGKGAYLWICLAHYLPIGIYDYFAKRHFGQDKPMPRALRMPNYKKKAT
Assay: Primary assay: inhibition of 17-Beta HSD II enzyme (estradiol/NAD, PMS:MTS colorimetric readout at 490 nm)
Format: biochemical
Conditions: Table 7; baculovirus-expressed recombinant HSD II, estradiol substrate
measured metric: IC50

## Input Indicate its recorded IC50; the molecule in question is CN1C(=O)C[C@H](c2ccccc2)[C@@H]1[C@H](O)C#Cc1ccccc1 (relative stereo) [Example 8]
## Output < 500 nM

## Input Indicate its recorded IC50; the molecule in question is CN1C(=O)C[C@H](c2ccccc2)[C@@H]1[C@H](O)c1ccc(-c2ccccc2C(F)(F)F)s1 (racemic) [Example 34]
## Output < 500 nM

## Input Indicate its recorded IC50; the molecule in question is CN1C(=O)C[C@H](c2ccccc2F)[C@@H]1[C@H](O)c1ccc(-c2cccs2)s1 [Example 155]
## Output < 500 nM

Others:
## Input Indicate its recorded IC50; the molecule in question is CN1C(=O)CC(c2ccccc2)C1C(O)c1ccc(-c2ccc(Cl)cc2)s1 (stereo not shown) [Example 51]
## Output < 500 nM

## Input Indicate its recorded IC50; the molecule in question is CN1C(=O)C[C@H](c2ccccc2)[C@@H]1[C@H](O)c1ccc(S(=O)(=O)N2CCSCC2)s1 (racemic) [Example 35]
## Output < 500 nM

## Input Indicate its recorded IC50; the molecule in question is CN1C(=O)C[C@H](c2ccccc2F)[C@@H]1[C@H](O)c1cccc(Cl)c1 [Example 154]
## Output < 500 nM

## Input Indicate its recorded IC50; the molecule in question is CN1C(=O)CC(c2ccccc2)C1C(O)c1ccc(Sc2ccccc2)s1 (stereo not shown) [Example 66]
## Output < 500 nM

## Input Indicate its recorded IC50; the molecule in question is CN1C(=O)CC(c2ccccc2)C1C(O)c1ccc(CCc2ccc(F)cc2)s1 (stereo not shown) [Example 57]
## Output < 500 nM

## Input Indicate its recorded IC50; the molecule in question is CN1C(=O)CC(c2ccccc2)C1C(O)c1ccc(-c2cccc([N+](=O)[O-])c2)s1 (racemic) [Example 44]
## Output < 500 nM

## Input Indicate its recorded IC50; the molecule in question is CN1C(=O)C[C@H](c2ccccc2)[C@@H]1[C@H](O)C#Cc1ccccc1Cl (racemic) [Example 126]
## Output < 500 nM

## Input Indicate its recorded IC50; the molecule in question is CN1C(=O)C[C@H](c2ccccc2)[C@@H]1[C@H](O)c1ccc(-c2cccc(NS(C)(=O)=O)c2)s1 (racemic) [Example 73]
## Output < 500 nM

## Input Indicate its recorded IC50; the molecule in question is CN1C(=O)CC(c2ccccc2)C1C(O)C#Cc1ccccc1F (stereo not shown) [Example 127]
## Output < 500 nM

## Input Indicate its recorded IC50; the molecule in question is CN1C(=O)CC(c2ccccc2)C1C(O)c1ccc(-c2ccccn2)s1 (stereo not shown) [Example 50]
## Output < 500 nM

## Input Indicate its recorded IC50; the molecule in question is Cc1c(C(O)C2C(c3ccccc3)CC(=O)N2C)sc2ccc(F)cc12 (racemic) [Example 53]
## Output < 500 nM

## Input Indicate its recorded IC50; the molecule in question is Cc1sc([C@@H](O)[C@H]2[C@@H](c3ccccc3)CC(=O)N2C)cc1-c1ccccc1 (racemic) [Example 38]
## Output < 500 nM

## Input Indicate its recorded IC50; the molecule in question is COc1ccccc1[C@H]1CC(=O)N(C)[C@H]1[C@H](O)c1ccc(S(=O)(=O)c2ccccc2)s1 (racemic) [Example 91]
## Output < 500 nM

###

measured metric: melting point (°C)

## Input Indicate its recorded melting point; the molecule in question is CN1C(=O)C[C@H](c2cccc(F)c2)[C@@H]1[C@H](O)c1ccc(-c2ccc(F)cc2)s1 (racemic)
## Output 195

## Input Indicate its recorded melting point; the molecule in question is CN1C(=O)CC(c2ccccc2)C1C(O)c1cccc(-c2cccc(F)c2)c1 (stereo not shown)
## Output 187

## Input Indicate its recorded melting point; the molecule in question is CSc1ccc(-c2ccc([C@@H](O)[C@H]3[C@@H](c4ccccc4)CC(=O)N3C)o2)cc1 (racemic)
## Output 183

## Input Indicate its recorded melting point; the molecule in question is CN1C(=O)CC(c2ccccc2)C1C(O)c1ccc(Sc2ccccc2)s1 (stereo not shown)
## Output 172

## Input Indicate its recorded melting point; the molecule in question is CN1C(=O)CC(c2ccc(N)cc2)C1C(O)c1ccc(-c2ccc(F)cc2)s1 (stereo not shown)
## Output 209

## Input Indicate its recorded melting point; the molecule in question is CN1C(=O)CC(c2ccccc2)C1C(O)c1ccc(-c2cccc(F)c2)s1 (stereo not shown)
## Output 180

## Input Indicate its recorded melting point; the molecule in question is Cc1ccc(-c2ccc([C@@H](O)[C@H]3[C@@H](c4ccccc4)CC(=O)N3C)s2)c(F)c1 (racemic)
## Output 182

## Input Indicate its recorded melting point; the molecule in question is CN1C(=O)CC(c2ccccc2)C1C(O)c1ccc(-c2ccc(C(F)(F)F)cc2)s1 (stereo not shown)
## Output 206

## Input Indicate its recorded melting point; the molecule in question is CN1C(=O)CC(c2ccccc2)C1C(O)c1ccc(-c2cccc([N+](=O)[O-])c2)s1 (racemic)
## Output 150

###

measured metric: melting point (°C)

Worked cases, melting point given:
## Input Indicate its recorded melting point; the molecule in question is COc1cccc(C2CC(=O)N(C)C2C(O)c2ccc(-c3ccc(F)cc3)s2)c1 (centres unmarked)
## Output 172

## Input Indicate its recorded melting point; the molecule in question is CN1C(=O)CC(c2ccccc2)C1C(O)c1cccc(-c2cccc(N)c2)c1 (centres unmarked)
## Output 130

## Input Indicate its recorded melting point; the molecule in question is CN1C(=O)CC(c2ccccc2)C1C(O)c1cccc(-c2ccc(O)cc2)c1 (centres unmarked)
## Output 230

## Input Indicate its recorded melting point; the molecule in question is CN1C(=O)C[C@H](c2ccccc2)[C@@H]1[C@H](O)c1ccc(-c2ccc(F)c(Cl)c2)s1 (relative stereo)
## Output 194

## Input Indicate its recorded melting point; the molecule in question is CN1C(=O)C[C@H](c2ccccc2)[C@@H]1[C@H](O)c1ccc(-c2cccnc2)s1 (relative stereo)
## Output 232

(A) CN1C(=O)C[C@H](c2ccccc2)[C@@H]1[C@H](O)c1ccc(-c2cccs2)s1 (racemic)
(B) CC(=O)Nc1cccc(-c2ccc(C(O)C3C(c4ccccc4)CC(=O)N3C)s2)c1 (centres unmarked)
## Input Determine, for A and B , which has the greater value of melting point. Give the label of your selection.
## Output A
(A: 152 °C, B: 97 °C)
